System: P388 mouse leukemia cells
Protocol Conditions: 92 h
Where a SMILES comes first, the peptide text is derived from it. [ ]: non-standard residue; d: D form. The star is where a group is joined. NHCH2CH2OH = OCCN*; For = O=C*
Would you kindly list cell viability/% for each of these compounds?
Give bare numbers, in %.

Worked examples follow.
Compound | Unit Of Measure | cell viability/%
CNC(=O)C[C@@H](NC(=O)[C@H](Cc1c[nH]c2ccccc12)NC(=O)[C@@H](CC(C)C)NC(=O)[C@H](Cc1c[nH]c2ccccc12)NC(=O)[C@H](NC(=O)[C@H](Cc1c[nH]c2ccccc12)NC(=O)[C@@H](CC(C)C)NC(=O)[C@@H](NC(=O)[C@H](NC(=O)[C@H](C)NC(=O)[C@H](NC(=O)[C@H](C)NC(=O)CNC(=O)[C@@H](NC=O)C(C)C)C(C)C)C(C)C)C(C)C)C(C)C)C(=O)N[C@@H](Cc1c[nH]c2ccccc12)C(=O)NCCO [compound 8400] (For-VGA[dV]A[dV]V[dL]W[dV]W[dL]W[dD](NHMe)W-NHCH2CH2OH) | % | 34.4
CC(C)C[C@@H](NC(=O)[C@H](C)NC(=O)CNC(=O)[C@@H](NC=O)C(C)C)C(=O)N[C@@H](C)C(=O)N[C@@H](C(=O)N[C@H](C(=O)N[C@@H](C(=O)N[C@@H](Cc1c[nH]c2ccccc12)C(=O)N[C@H](CC(C)C)C(=O)N[C@@H](Cc1c[nH]c2ccccc12)C(=O)N[C@@H](C(=O)N[C@@H](Cc1c[nH]c2ccccc12)C(=O)N[C@H](CC(C)C)C(=O)N[C@@H](Cc1c[nH]c2ccccc12)C(=O)NCCO)C(C)C)[C@H](C)O)C(C)C)C(C)C [compound 12185] (For-VGA[dL]A[dV]V[dT]W[dL]W[dV]W[dL]W-NHCH2CH2OH) | % | 98.1
CC(C)C[C@@H](NC(=O)[C@H](C)NC(=O)CNC(=O)[C@@H](NC=O)C(C)C)C(=O)N[C@@H](C)C(=O)N[C@@H](C(=O)N[C@H](C(=O)N[C@@H](C(=O)N[C@@H](Cc1c[nH]c2ccccc12)C(=O)N[C@H](CC(C)C)C(=O)N[C@@H](Cc1c[nH]c2ccccc12)C(=O)N[C@H](CC(C)C)C(=O)N[C@@H](Cc1c[nH]c2ccccc12)C(=O)N[C@H](CC(C)C)C(=O)N[C@@H](Cc1c[nH]c2ccccc12)C(=O)NCCO)[C@H](C)O)C(C)C)C(C)C [compound 2172] (For-VGA[dL]A[dV]V[dT]W[dL]W[dL]W[dL]W-NHCH2CH2OH) | % | 100.0

Could you now look at the following compound, please?
Asked: What cell viability/% value was documented for this compound, CC(C)C[C@@H](NC(=O)[C@H](C)NC(=O)CNC(=O)[C@@H](NC=O)C(C)C)C(=O)N[C@@H](C)C(=O)N[C@@H](C(=O)N[C@H](C(=O)N[C@@H](C(=O)N[C@@H](Cc1c[nH]c2ccccc12)C(=O)N[C@H](CC(C)C)C(=O)N[C@@H](Cc1c[nH]c2ccccc12)C(=O)N[C@H](CC(C)C)C(=O)N[C@@H](Cc1c[nH]c2ccccc12)C(=O)N[C@H](CC(C)C)C(=O)N[C@@H](Cc1c[nH]c2ccccc12)C(=O)NCCO)C(C)C)C(C)C)C(C)C [compound 6292] (For-VGA[dL]A[dV]V[dV]W[dL]W[dL]W[dL]W-NHCH2CH2OH) ?
Given back: 5.4
